Recorded values, source patent US20090119801A1.

- assayProtocol: Volatilization rate of organic solvents (Table 2)
- Format: physicochemical
Would you kindly list volatilization rate (%) for each of these compounds?
Write down the numeric answer in % and omit the unit.

Notebook: CC(CCO)CCO [3-methyl-1,5-pentanediol] , volatilization rate (%) read as 0

Lab note: OCCO [ethylene glycol] gave volatilization rate (%) of 0

The compound listed as CCCCC(CC)COCCO (stereo not shown) [2-(2-ethylhexyloxy)ethanol] has a reported volatilization rate (%) of 1

# volatilization rate (%) (compound: CCCCC(CC)COCCOCCO (stereo not shown) [2-[2-(2-ethylhexyloxy)ethoxy]ethanol] ) is 0

Record OCC(O)CO [glycerin] . Reported volatilization rate (%): 0

Briefly, volatilization rate (%) measured for CCCC(O)C(CC)CO (stereo not shown) [2-ethyl-1,3-hexanediol] : 0

Given item CC(O)CC(C)(C)O (stereo not shown) [2-methyl-2,4-pentanediol] , the value recorded as its volatilization rate (%) is 3
